# assay-details: M. tuberculosis growth inhibition, HTS (AID 449762);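 note: bacterial growth assessed after seven days of incubation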
# measurement-parameters: M. tuberculosis H37Rv growth inhibition, 7H9 media; at 25 µM; hits give high values
The campaign covered roughly 330,000 compounds. About 1,900 (0.58%) were called active. Inconclusive results (about 4%) are left out. Not all results are given here. Measured potencies and affinities stand elsewhere.
assay-endpoint: inhibition (%)
Please respond with the number in % and leave the unit unwritten.

Example cases with answers are listed next.
# molecular-string, display-unit, recorded-result
data = [
    ("COc1ccc(-n2c(COc3ccc4c(c3)OCO4)nnc2SCC(=O)O)cc1", "%", 14.8),
    ("COc1ccc(CC(=O)O/N=C(\\N)Cc2ccc(OC)c(OC)c2)cc1", "%", 2.93),
    ("COc1ccc(NC(=O)/C(=C\\c2cccs2)NC(=O)c2ccco2)cc1", "%", 6.87),
    ("CC1=NC(C(F)(F)F)(C(F)(F)F)C(C#N)=C(C)N1", "%", -4.27),
]

Now consider a different compound.
In: I'd like to know its inhibition. The compound in question is COc1ccc(S(=O)(=O)N2CCN(C(=O)CCNC(=O)c3ccccc3Cl)CC2)cc1
Out: -12.2
